Target: T1, human C type Lectin Like molecule 1 (CLL-1) on cells (human, UniProt Q5QGZ9 1-265)
T1 construct: also called hCLL-1; CLEC12A
T1 sequence: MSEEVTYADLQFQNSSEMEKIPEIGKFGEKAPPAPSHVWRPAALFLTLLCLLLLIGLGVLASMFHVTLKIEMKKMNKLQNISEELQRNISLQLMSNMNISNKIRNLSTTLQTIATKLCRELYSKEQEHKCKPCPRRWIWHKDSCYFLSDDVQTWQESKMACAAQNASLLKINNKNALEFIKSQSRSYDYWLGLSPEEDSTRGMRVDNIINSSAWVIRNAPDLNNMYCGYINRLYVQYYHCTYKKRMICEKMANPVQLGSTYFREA
Assay: FACS, recombinant 293 cells expressing human CLL-1
List of % of live cells with antibody binding values.
Quantity kind: % of live cells with antibody binding (%)

{"Binder": "CLL-1 antibody clone M5 (antibody, IgG2a, V domains shown) VH: EVQLQQSGAELVRPGASVKLSCTASGFNIKDDYIHWVKQRPEQGLEWIGWIDPEKGDTAYASKFQDKATITSDTSSNTAYLQLSSLTSEDTAVYYCTLTGRFDYWGQGTTLTVSS VL: DIVMSQSPSSLAVSVGEKVTMSCKSSQSLLYSSNQKNNLAWYQQKPGQSPKLLIYWASTRESGVPDRFTGSGSGTDFTLTISSVQAEDLAVYYCQQYYSYRTFGGGTKLEIK", "Unit label": "%", "Readout value": 1.1}
{"Binder": "CLL-1 antibody clone M31 (antibody, IgG2a, V domains shown) VH: EVQLQQSGPELVKPGASVKMSCKASGYTFTSYVMHWVKQKPGQGLEWIGYINPYNDGTKYNEKFKGKATLTSDTSSSTAYMELNSLTSEDSAVYFCARPIYFDNDYFDYWGQGTTLKVSS VL: TIVLTQSPASLAVSLGQRATISCRASESVDSYGNSFMHWYQQKPGQPPKLLIYLASNLESGVPARFSGSGSRTDFTLTIDPVEADDAATYYCQQNNYDPWTFGGGTKLEIK", "Unit label": "%", "Readout value": 76}
{"Binder": "CLL-1 antibody clone M22 (antibody, IgG2a, V domains shown) VH: QVQLQQPGAELVKPGASVKLSCKASGYTFTRYWMHWVKQRPGQGLEWIGNIDPSDTETHYNQQFKDKATLTVDKSSSTAYMQLSSLTSEDSAVYYCAIYYGNPSYYAMDYWGQGTSVTVSS VL: DIVMTQSPSSLTVTAGEKVTMSCKSSQNLLNSGNQKKYLNWYQQKPGQPPKLLIYWASTRESGVPDRFTGSGSGTDFTLTISSVQAEDLAVYFCQNDYSYPFTFGAGTKLELK", "Unit label": "%", "Readout value": 97}
